# system-under-test: cAMP and cAMP-inhibited cGMP 3',5'-cyclic phosphodiesterase 10A (Homo sapiens, UniProt Q9Y233)
# Sequence (Q9Y233 whole entry): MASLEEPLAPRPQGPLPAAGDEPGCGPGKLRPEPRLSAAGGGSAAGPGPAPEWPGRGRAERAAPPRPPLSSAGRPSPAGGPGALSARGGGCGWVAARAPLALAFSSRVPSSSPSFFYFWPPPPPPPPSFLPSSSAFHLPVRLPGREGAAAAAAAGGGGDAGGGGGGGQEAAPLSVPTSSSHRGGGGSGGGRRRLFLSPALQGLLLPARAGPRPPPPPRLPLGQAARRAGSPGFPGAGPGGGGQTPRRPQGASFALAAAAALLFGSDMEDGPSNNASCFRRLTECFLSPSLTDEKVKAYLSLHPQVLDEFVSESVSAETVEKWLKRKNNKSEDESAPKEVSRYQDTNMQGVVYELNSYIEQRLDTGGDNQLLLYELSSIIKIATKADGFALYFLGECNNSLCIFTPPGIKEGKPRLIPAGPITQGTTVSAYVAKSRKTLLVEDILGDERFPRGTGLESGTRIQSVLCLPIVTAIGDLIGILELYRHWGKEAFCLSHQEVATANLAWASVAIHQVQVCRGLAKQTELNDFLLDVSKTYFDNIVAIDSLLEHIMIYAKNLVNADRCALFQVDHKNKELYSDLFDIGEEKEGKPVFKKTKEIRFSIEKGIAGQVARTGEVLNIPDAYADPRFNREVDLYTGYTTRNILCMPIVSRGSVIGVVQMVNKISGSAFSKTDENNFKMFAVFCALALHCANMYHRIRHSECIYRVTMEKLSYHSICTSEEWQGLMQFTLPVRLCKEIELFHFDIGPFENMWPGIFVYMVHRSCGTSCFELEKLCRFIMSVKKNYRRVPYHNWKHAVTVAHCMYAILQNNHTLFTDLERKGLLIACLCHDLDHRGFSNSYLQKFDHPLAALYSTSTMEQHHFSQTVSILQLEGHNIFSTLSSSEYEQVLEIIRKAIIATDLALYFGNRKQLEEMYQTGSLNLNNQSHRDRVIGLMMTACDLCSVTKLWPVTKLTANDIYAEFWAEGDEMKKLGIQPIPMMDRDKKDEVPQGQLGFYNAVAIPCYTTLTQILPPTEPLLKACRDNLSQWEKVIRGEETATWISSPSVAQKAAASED
# test: Inhibition of human recombinant PDE10A using [3H]-cAMP/[3H]-cGMP as substrate after 30 mins by radiometric assay
readout-name: log10(IC50) (log10 of the value in nM)
# values: log10(IC50), units nM

Please review the following examples before continuing.
INSERT INTO measurements (compound, numeric_readout) VALUES
  ('CC(=O)N1CCC(c2nc(C)c3sc4cc(OCc5ccc6ccccc6n5)ccc4n23)CC1', 0.95),
  ('Cc1nc([C@]23COC[C@H]2C3)n2c1sc1cc(OCc3ccc4ccccc4n3)ccc12', 0.71),
  ('Cc1nc(-c2ccncc2)n2c1sc1cc(OCc3ccc4ccccc4n3)ccc12', 0.69),
  ('Cc1nc(C2CCOCC2)n2c1sc1cc(OCc3ccc4ccccc4n3)ccc12', 0.87);

**Q:** Identify the reported log10(IC50) for the following entry. Cc1cc(-c2nc(C)c3sc4cc(OCc5ccc6ccccc6n5)ccc4n23)ccn1
**A:** 0.94

###

# test: Metabolic stability in rat liver microsomes assessed as compound remaining after 60 mins
# Type: ADME
# reported-conditions: read-out: Stability
readout-name: remaining at 1 h (%)
Enter your answer as a number in %; do not include the unit.

Some compounds with recorded remaining at 1 h:
INSERT INTO results (compound, numeric_readout) VALUES
  ('Cc1nc(-c2ccnnc2)n2c1sc1cc(OCc3ccc4ccccc4n3)ccc12', 3),
  ('CC(=O)N1CCC(c2nc(C)c3sc4cc(OCc5ccc6ccccc6n5)ccc4n23)CC1', 48),
  ('Cc1nc(C2CCOCC2)n2c1sc1cc(OCc3ccc4ccccc4n3)ccc12', 65);

**Q:** Return value of remaining at 1 h for input Cc1cc(-c2nc(C)c3sc4cc(OCc5ccc6ccccc6n5)ccc4n23)ccn1 , no commentary.
**A:** 19

**Q:** Identify the reported remaining at 1 h for the following entry. Cc1nc([C@]23COC[C@H]2C3)n2c1sc1cc(OCc3ccc4ccccc4n3)ccc12
**A:** 70

**Q:** Give reported remaining at 1 h value for Cc1nc([C@@]23COC[C@@H]2C3)n2c1sc1cc(OCc3ccc4ccccc4n3)ccc12
**A:** 60

**Q:** Complete the entry with remaining at 1 h for CC(=O)N1CC(c2nc(C)c3sc4cc(OCc5ccc6ccccc6n5)ccc4n23)C1
**A:** 42

**Q:** Give the reported value of remaining at 1 h for this record: Cc1nc(-c2ccncc2)n2c1sc1cc(OCc3ccc4ccccc4n3)ccc12
**A:** 22

**Q:** Specify remaining at 1 h for Cc1nc(C)c(-c2nc(C)c3sc4cc(OCc5ccc6ccccc6n5)ccc4n23)s1 and stop.
**A:** 20

**Q:** Supply remaining at 1 h value. Item: Cc1nc(C2CNC2)n2c1sc1cc(OCc3ccc4ccccc4n3)ccc12
**A:** 80

**Q:** In one line, give reported remaining at 1 h of the entry Cc1nc(C2CCOC2)n2c1sc1cc(OCc3ccc4ccccc4n3)ccc12 (stereo unspecified) .
**A:** 37

###

# remaining at 1 h values compiled below
# test: Metabolic stability in human liver microsomes assessed as compound remaining after 60 mins
# Format: ADME
# reported-conditions: read-out: Stability
The answer is to be given in %; state only the numeric part.

INSERT INTO results (compound, units_text, numeric_readout) VALUES
  ('Cc1nc(C)c(-c2nc(C)c3sc4cc(OCc5ccc6ccccc6n5)ccc4n23)s1', '%', 3),
  ('Cc1nc(C2CCOCC2)n2c1sc1cc(OCc3ccc4ccccc4n3)ccc12', '%', 57),
  ('Cc1nc(-c2ccncc2)n2c1sc1cc(OCc3ccc4ccccc4n3)ccc12', '%', 5);

**Q:** Output remaining at 1 h of Cc1nc([C@]23COC[C@H]2C3)n2c1sc1cc(OCc3ccc4ccccc4n3)ccc12
**A:** 44

**Q:** Note down remaining at 1 h recorded for Cc1nc(-c2ccnnc2)n2c1sc1cc(OCc3ccc4ccccc4n3)ccc12
**A:** 30

**Q:** Give remaining at 1 h for CC(=O)N1CC(c2nc(C)c3sc4cc(OCc5ccc6ccccc6n5)ccc4n23)C1
**A:** 50

**Q:** Read off the recorded remaining at 1 h for Cc1nc([C@@]23COC[C@@H]2C3)n2c1sc1cc(OCc3ccc4ccccc4n3)ccc12
**A:** 37

**Q:** Give the reported value of remaining at 1 h for this record: Cc1nc(C2CCOC2)n2c1sc1cc(OCc3ccc4ccccc4n3)ccc12 (stereo unspecified)
**A:** 45

**Q:** Determine from records and report remaining at 1 h for Cc1nc(C2CNC2)n2c1sc1cc(OCc3ccc4ccccc4n3)ccc12
**A:** 100

**Q:** Look up and report measured remaining at 1 h for this entry: CC(=O)N1CCC(c2nc(C)c3sc4cc(OCc5ccc6ccccc6n5)ccc4n23)CC1
**A:** 76

**Q:** Let me know recorded remaining at 1 h for Cc1cc(-c2nc(C)c3sc4cc(OCc5ccc6ccccc6n5)ccc4n23)ccn1 , thanks.
**A:** 5
